Please respond with reported pEC50 for every item in the list.
# Test system: G. lamblia BRIS/83/HEPU/106 (106)
# assay info: ATP-bioluminescence growth and survival assay, G. lamblia 106
# Format: cell-based
# assay context: Giardia duodenalis, read-out: EC50 G. lamblia 106
Recall that pEC50 is obtained by taking minus log10 of the concentration measured in molar.

## Task Looking for the measured pEC50 of `Cc1ncc([N+](=O)[O-])n1CCn1cc(-c2ccc(Cl)c(Cl)c2)nn1` , can you help?
## Result 5.96

## Task Bench note: what pEC50 did `Cc1ncc([N+](=O)[O-])n1CCn1cc(-c2ccc(Cl)cc2)nn1` show?
## Result 6.05

## Task # pEC50 lookup, item `Cc1ncc([N+](=O)[O-])n1CCn1cc(CN(C)Cc2ccccc2)nn1`
## Result 5.96

###

# Test system: H. pylori clinical isolate 13/25
# assay info: MIC agar dilution, H. pylori 13/25
# Format: cell-based
# assay context: Helicobacter pylori, MtzS clinical isolate
experimental readout: MIC

## Task Quick check: MIC of `COC(=O)c1cn(CCn2c([N+](=O)[O-])cnc2C)nn1` ?
## Result 32 to 64 µg/mL

## Task MIC lookup needed for `Cc1ncc([N+](=O)[O-])n1CCn1cc(C(=O)O)nn1` , thanks.
## Result > 64 µg/mL

## Task GET /values?readout=MIC&item= `Cc1ncc([N+](=O)[O-])n1CCO`
## Result 4 to 8 µg/mL

###

Kindly supply the reported MIC values for the records listed here.

## Task Item `Cc1ncc([N+](=O)[O-])n1CCn1cc(CN2CCS(=O)(=O)CC2)nn1` with C. difficile 630 ATCC BAA-1382 - MIC?
## Result > 64 µg/mL

## Task // lookup MIC | system=C. difficile 630 ATCC BAA-1382 | key= `Cc1ncc([N+](=O)[O-])n1CCn1cc(CN)nn1.O=C(O)C(F)(F)F`
## Result > 64 µg/mL

## Task Fill in the recorded MIC for this compound, with C. difficile 630 ATCC BAA-1382 as test system: `Cc1ncc([N+](=O)[O-])n1CCn1cc(CCC(=O)O)nn1`
## Result > 64 µg/mL

###

Would you kindly list MIC for each of these compounds?
# Tested on: C. difficile NAP1/027 CD26A54_S
# assay info: MIC broth microdilution, C. difficile CD26A54_S
# Type: cell-based, Clostridium difficile
# assay context: Clostridioides difficile; CD26A54_S, MtzS (intermediary), 48 h growth; read-out: MIC C. difficile NAP1/027 CD26A54_S 48 h

## Task Which measured MIC belongs to `Cc1ncc([N+](=O)[O-])n1CCn1cc(CN)nn1.O=C(O)C(F)(F)F` , tested on C. difficile NAP1/027 CD26A54_S?
## Result > 64 µg/mL

## Task Hello, I am looking for reported MIC with C. difficile NAP1/027 CD26A54_S for `Cc1ncc([N+](=O)[O-])n1CCn1cc(CO)nn1` . Could you help?
## Result 16 to 32 µg/mL

## Task Item `Cc1ncc([N+](=O)[O-])n1CCn1cc(C(=O)O)nn1` with C. difficile NAP1/027 CD26A54_S - MIC?
## Result > 64 µg/mL

## Task MIC of `Cc1ncc([N+](=O)[O-])n1CCn1cc(CCC(=O)O)nn1` on C. difficile NAP1/027 CD26A54_S?
## Result > 64 µg/mL

## Task What reported MIC corresponds to `Cc1ncc([N+](=O)[O-])n1CCn1cc(-c2ncccn2)nn1` on C. difficile NAP1/027 CD26A54_S?
## Result 2 to 4 µg/mL

## Task GET /values?readout=MIC&system=C. difficile NAP1/027 CD26A54_S&item= `Cc1ncc([N+](=O)[O-])n1CCn1cc(CN2CCS(=O)(=O)CC2)nn1`
## Result > 64 µg/mL

# credit: paper PMC4550478
